Ref: patent US20240317847A1

Biological target: T1, human IL-11 (Invigate, e.g., lot #C121021-19) (human, UniProt P20809 22-199)
T1 construct: Bought protein; also called hIL-11; hIL11
T1 sequence: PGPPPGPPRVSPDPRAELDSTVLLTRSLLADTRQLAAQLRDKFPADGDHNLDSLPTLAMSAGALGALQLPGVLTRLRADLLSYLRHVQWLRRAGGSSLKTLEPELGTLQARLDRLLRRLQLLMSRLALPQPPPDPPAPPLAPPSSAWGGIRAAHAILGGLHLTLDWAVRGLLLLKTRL
Experiment: SPR, Biacore 8K; antibody captured on anti-human IgG Fc chip, IL-11 analyte 0-50 nM, 1:1 fit
Let's look at some binders and their measured Kd.
// return numeric value only (unit: nM, not printed)

Lookup: Please indicate Kd recorded for TPP-31289 (antibody, human IgG4, V domains shown, consecutive numbering; also called VH-G16R) VH: EVQLLESGGGLVQPGRSLRLSCAASGFTFSHYDMNWLRQAPGKGLEWVGVISYDGSNKFYADFVKGRFTISRDNSKNTLYLQMNSLRAEDTAVYYCARTPGSHFDYWGQGTLVTVSS VL: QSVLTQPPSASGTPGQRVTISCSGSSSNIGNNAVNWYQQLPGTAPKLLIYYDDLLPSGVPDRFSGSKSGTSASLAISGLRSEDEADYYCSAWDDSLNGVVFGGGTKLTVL
Found: 9.6

Lookup: Please indicate Kd recorded for TPP-31284 (antibody, human IgG4, V domains shown, consecutive numbering; also called VL-L55R) VH: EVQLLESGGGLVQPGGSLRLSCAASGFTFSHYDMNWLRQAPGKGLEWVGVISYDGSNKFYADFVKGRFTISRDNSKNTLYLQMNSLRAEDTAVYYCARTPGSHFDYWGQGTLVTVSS VL: QSVLTQPPSASGTPGQRVTISCSGSSSNIGNNAVNWYQQLPGTAPKLLIYYDDLRPSGVPDRFSGSKSGTSASLAISGLRSEDEADYYCSAWDDSLNGVVFGGGTKLTVL
Found: 11

Lookup: Please indicate Kd recorded for TPP-31277 (antibody, human IgG4, V domains shown, consecutive numbering; also called VL-N31S) VH: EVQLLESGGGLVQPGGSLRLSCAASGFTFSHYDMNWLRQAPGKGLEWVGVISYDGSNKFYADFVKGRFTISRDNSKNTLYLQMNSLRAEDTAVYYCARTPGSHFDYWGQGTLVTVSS VL: QSVLTQPPSASGTPGQRVTISCSGSSSNIGSNAVNWYQQLPGTAPKLLIYYDDLLPSGVPDRFSGSKSGTSASLAISGLRSEDEADYYCSAWDDSLNGVVFGGGTKLTVL
Found: 9.4

Lookup: Please indicate Kd recorded for TPP-31293 (antibody, human IgG4, V domains shown, consecutive numbering; also called VH-L37V) VH: EVQLLESGGGLVQPGGSLRLSCAASGFTFSHYDMNWVRQAPGKGLEWVGVISYDGSNKFYADFVKGRFTISRDNSKNTLYLQMNSLRAEDTAVYYCARTPGSHFDYWGQGTLVTVSS VL: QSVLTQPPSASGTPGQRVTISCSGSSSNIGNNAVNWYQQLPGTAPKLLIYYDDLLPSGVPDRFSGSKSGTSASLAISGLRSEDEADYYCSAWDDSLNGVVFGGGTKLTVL
Found: 4.8

// moving on: another record for Kd
Lookup: Please indicate Kd recorded for TPP-31311 (antibody, human IgG4, V domains shown, consecutive numbering; also called VH-G55S / VL-G98A) VH: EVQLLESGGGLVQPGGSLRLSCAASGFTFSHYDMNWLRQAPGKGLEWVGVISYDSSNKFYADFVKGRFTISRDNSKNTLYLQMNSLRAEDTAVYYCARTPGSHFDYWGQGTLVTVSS VL: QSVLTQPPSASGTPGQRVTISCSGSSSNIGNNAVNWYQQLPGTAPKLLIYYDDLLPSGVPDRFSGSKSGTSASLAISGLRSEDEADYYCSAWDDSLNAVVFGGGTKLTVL
Found: 87
